tested-system: program cell death protein 1 (PD-1) (UniProt Q15116 25-167, limits assumed)
Sequence (Q15116 25-167 limits assumed): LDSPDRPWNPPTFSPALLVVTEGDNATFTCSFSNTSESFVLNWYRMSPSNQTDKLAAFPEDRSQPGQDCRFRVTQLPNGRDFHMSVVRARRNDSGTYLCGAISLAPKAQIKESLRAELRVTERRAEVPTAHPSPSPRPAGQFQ
measurement-description: cell-based or functional assay
quantity-name: Bmax (RU) (PD-1/PD-L1 blockade assay)
Don't forget the unit after the value.

In the examples that follow, each entry is paired with its recorded Bmax (RU) (PD-1/PD-L1 blockade assay).
>  <binder>
PD1-1 (antibody, V domains shown, IgG in the assay) VH: QVQLVQSGAEVKKPGASVKVSCKASGYTFSHYGISWVRQAPGQGLEWMGWVSAYSGNTRYAQKLQGRVTMTTDTSTSTAYMELRSLRSDDTAVYYCARDATYSSGSGYWGQGTLVTVSS VL: SYELMQPPSVSVSPGQTARITCSGDALPTQYAYWYQQKPGQAPVLVIYQDNERPSGIPERFSGSSSGTTVTLTISGVQAEDEADYYCQSADNSITYRVFGGGTKLTVL

>  <Bmax (RU) (PD-1/PD-L1 blockade assay)>
693 RU

$$$$
>  <binder>
PD1-8 (antibody, V domains shown, IgG in the assay) VH: QVQLVQSGAEVKKPGASVKVSCKASGYTFSHYGISWVRQAPGQGLEWMGWISPYSGNTKYAQKLQGRVTMTTDTSTSTAYMELRSLRSDDTAVYYCARDNDYSSGSGYWGQGTLVTVSS VL: SYELMQPPSVSVSPGQTARITCSGDELPKQYAYWYQQKPGQAPVLVIYKDNERASGIPERFSGSSSGTTVTLTISGVQAEDEADYYCQSADNSITYRVFGGGTKLTVL

>  <Bmax (RU) (PD-1/PD-L1 blockade assay)>
436 RU

$$$$
>  <binder>
PD1-7 (antibody, V domains shown, IgG in the assay) VH: QVQLVQSGAEVKKPGASVKVSCKASGYTFTHYGITWVRQAPGQGLEWMGWISAYSGSTNYAQKLQGRVTMTTDTSTSTAYMELRSLRSDDTAVYYCARDADYSIGSGYWGQGTLVTVSS VL: SYELMQPPSVSVSPGQTARITCSGDALPNQYAFWYQQKPGQAPVLVIYKDNERPSGIPERFSGSSSGTTVTLTISGVQAEDEADYYCQSADNSITYRVFGGGTKLTVL

>  <Bmax (RU) (PD-1/PD-L1 blockade assay)>
642 RU

$$$$

Now for the binder whose Bmax (RU) (PD-1/PD-L1 blockade assay) we want.
What does the record list as Bmax (RU) (PD-1/PD-L1 blockade assay) for PD1-2 (antibody, V domains shown, IgG in the assay) VH: QVQLVQSGAEVKKPGASVKVSCKASGYSFSNYGISWVRQAPGQGLEWMGWVSAYSGNTNYAQKLQGRVTMTTDTSTSTAYMELRSLRSDDTAVYYCARDADYASGSGYWGQGTLVTVSS VL: SYELMQPPSVSVSPGQTARITCSGDELPNQYAYWYQQKPGQAPVLVIYKDTQRPSGIPERFSGSSSGTTVTLTISGVQAEDEADYYCQSADNSITYRVFGGGTKLTVL ?
661 RU

From: patent US20200308575A1
